# System: NCI-H2023
# Experiment Summary: relative viability (nuclei count vs DMSO), 5 days (fraction); higher = more cells survive
# Run Conditions: first compound 4 µM
Experimental Endpoint: relative viability

Here are 7 compounds together with their reported answers.
{"Compound": "COc1cc(N2CCC(C(N)=O)CC2)ccc1Nc1nc(N)c(Cl)c(Nc2ccccc2S(=O)(=O)C(C)C)n1 [HG-5-88-01] + Nc1ncn([C@H]2C[C@H](O)[C@@H](CO)O2)c(=O)n1 [Decitabine] (partner 2 µM)", "Experimental Endpoint": "relative viability", "Recorded Value": 0.256}
{"Compound": "Clc1ccc(Nc2nnc(Cc3ccncc3)c3ccccc23)cc1 [Vatalanib] + CC1(C)CCC(c2ccc(Cl)cc2)=C(CN2CCN(c3ccc(C(=O)NS(=O)(=O)c4ccc(N[C@H](CCN5CCOCC5)CSc5ccccc5)c(S(=O)(=O)C(F)(F)F)c4)cc3)CC2)C1 [Navitoclax] (partner 0.5 µM)", "Experimental Endpoint": "relative viability", "Recorded Value": 0.982}
{"Compound": "Clc1ccc(Nc2nnc(Cc3ccncc3)c3ccccc23)cc1 [Vatalanib] + N=C(N)NC(=N)NCCc1ccccc1 [Phenformin] (partner 250 µM)", "Experimental Endpoint": "relative viability", "Recorded Value": 0.341}
{"Compound": "C[C@@H]1CN(CC(=O)Nc2ccc3c(c2)Cc2cccc(-c4cc(=O)cc(N5CCOCC5)o4)c2S3)C[C@H](C)O1 + COc1cccc2cc(-c3nc([C@H]4CC[C@H](C(=O)O)CC4)n4ncnc(N)c34)[nH]c12 [OSI-027] (partner 0.5 µM)", "Experimental Endpoint": "relative viability", "Recorded Value": 0.197}
{"Compound": "Clc1ccc(Nc2nnc(Cc3ccncc3)c3ccccc23)cc1 [Vatalanib] + CC(C)C[C@H](NC(=O)[C@H](Cc1ccccc1)NC(=O)c1cnccn1)B(O)O [Bortezomib] (partner 0.002 µM)", "Experimental Endpoint": "relative viability", "Recorded Value": 0.695}
{"Compound": "C[C@@H]1CN(CC(=O)Nc2ccc3c(c2)Cc2cccc(-c4cc(=O)cc(N5CCOCC5)o4)c2S3)C[C@H](C)O1 + CCNC(=O)c1noc(-c2cc(C(C)C)c(O)cc2O)c1-c1ccc(CN2CCOCC2)cc1 [Luminespib] (partner 0.01 µM)", "Experimental Endpoint": "relative viability", "Recorded Value": 0.37}
{"Compound": "COc1cc(N2CCC(C(N)=O)CC2)ccc1Nc1nc(N)c(Cl)c(Nc2ccccc2S(=O)(=O)C(C)C)n1 [HG-5-88-01] + Cc1nc(NC(=O)N2CCC[C@H]2C(N)=O)sc1-c1ccnc(C(C)(C)C(F)(F)F)c1 [Alpelisib] (partner 2 µM)", "Experimental Endpoint": "relative viability", "Recorded Value": 0.474}

Next:
-- ask Given C[C@@H]1CN(CC(=O)Nc2ccc3c(c2)Cc2cccc(-c4cc(=O)cc(N5CCOCC5)o4)c2S3)C[C@H](C)O1 + Nc1nc2[nH]cc(CCc3ccc(C(=O)N[C@@H](CCC(=O)O)C(=O)O)cc3)c2c(=O)[nH]1 [Pemetrexed] (partner 0.2 µM) , state its recorded relative viability.
-- reply 0.199

---

# Test system: NCI-H1793
# Experiment Summary: relative viability (nuclei count vs DMSO), 5 days (fraction); higher = more cells survive
# Run Conditions: first compound 4 µM
Experimental Endpoint: relative viability
Returns: the value as a bare number; no unit string appended.

The cases that follow already have their relative viability on record.
{"Compound": "COc1cc(N2CCC(C(N)=O)CC2)ccc1Nc1nc(N)c(Cl)c(Nc2ccccc2S(=O)(=O)C(C)C)n1 [HG-5-88-01] + C[C@]1(O)C[C@@H](c2nc(-c3ccc4ccc(-c5ccccc5)nc4c3)c3c(N)nccn32)C1 [Linsitinib] (partner 1 µM)", "relative viability": 1.18}
{"Compound": "C[C@@H]1CN(CC(=O)Nc2ccc3c(c2)Cc2cccc(-c4cc(=O)cc(N5CCOCC5)o4)c2S3)C[C@H](C)O1 + COc1cc2c(Oc3ccc(NC(=O)C4(C(=O)Nc5ccc(F)cc5)CC4)cc3F)ccnc2cc1OCCCN1CCOCC1 [Foretinib] (partner 0.25 µM)", "relative viability": 0.476}

-- ask What value of relative viability has been reported for the following compound? COc1cc(N2CCC(C(N)=O)CC2)ccc1Nc1nc(N)c(Cl)c(Nc2ccccc2S(=O)(=O)C(C)C)n1 [HG-5-88-01] + COc1cccc2cc(-c3nc([C@H]4CC[C@H](C(=O)O)CC4)n4ncnc(N)c34)[nH]c12 [OSI-027] (partner 0.5 µM)
-- reply 0.177

-- ask Recorded relative viability of C[C@@H]1CN(CC(=O)Nc2ccc3c(c2)Cc2cccc(-c4cc(=O)cc(N5CCOCC5)o4)c2S3)C[C@H](C)O1 + CC(=O)Nc1cccc(-n2c(=O)n(C3CC3)c(=O)c3c(Nc4ccc(I)cc4F)n(C)c(=O)c(C)c32)c1 [Trametinib] (partner 0.02 µM) , please.
-- reply 0.34

-- ask What relative viability value was documented for this compound, Clc1ccc(Nc2nnc(Cc3ccncc3)c3ccccc23)cc1 [Vatalanib] + O=C(CCCCCCC(=O)Nc1ccccc1)NO [Vorinostat] (partner 1 µM) ?
-- reply 0.71

-- ask May I ask what relative viability has been recorded for C[C@@H]1CN(CC(=O)Nc2ccc3c(c2)Cc2cccc(-c4cc(=O)cc(N5CCOCC5)o4)c2S3)C[C@H](C)O1 + COc1cccc2cc(-c3nc([C@H]4CC[C@H](C(=O)O)CC4)n4ncnc(N)c34)[nH]c12 [OSI-027] (partner 0.5 µM) ?
-- reply 0.149

-- ask Form field: reported relative viability of COc1cc(N2CCC(C(N)=O)CC2)ccc1Nc1nc(N)c(Cl)c(Nc2ccccc2S(=O)(=O)C(C)C)n1 [HG-5-88-01] + COc1cc2c(Oc3ccc(NC(=O)C4(C(=O)Nc5ccc(F)cc5)CC4)cc3F)ccnc2cc1OCCCN1CCOCC1 [Foretinib] (partner 0.25 µM)
-- reply 0.423

-- ask Which relative viability is reported for this compound? Clc1ccc(Nc2nnc(Cc3ccncc3)c3ccccc23)cc1 [Vatalanib] + CC(=O)Nc1cccc(-n2c(=O)n(C3CC3)c(=O)c3c(Nc4ccc(I)cc4F)n(C)c(=O)c(C)c32)c1 [Trametinib] (partner 0.02 µM)
-- reply 0.425

-- ask For the compound COc1cc(N2CCC(C(N)=O)CC2)ccc1Nc1nc(N)c(Cl)c(Nc2ccccc2S(=O)(=O)C(C)C)n1 [HG-5-88-01] + Cc1nc(NC(=O)N2CCC[C@H]2C(N)=O)sc1-c1ccnc(C(C)(C)C(F)(F)F)c1 [Alpelisib] (partner 2 µM) , what relative viability is on record?
-- reply 0.723
